system: K-562 leukemia; test: NCI-60 one-dose screen, 48 h (100 = growth as untreated, 0 = no growth, -100 = all killed); conditions: 10 µM unless noted
This is part of a sample that, as a whole, favours compounds with a hit. Of some 83,000 tested, about 20% had one in any assay.
Flag rule - growth less than 90% flags Met; the remaining entries get Not met.

COc1ccc(C(=O)CC(c2ccccc2)C(C#N)c2ccccc2)cc1 (centres undefined)    Met
Nc1nc(N)c2[nH]cnc2n1    Met
CCc1cc(C)cc(O)c1    Not met
Nc1cc(N)c(N)cc1N    Met
CCCCOC(=O)/C=C\C(=O)NC(N)=O    Met

Quick check: does COc1cc(C(O)C2C(=O)OCC2C2(c3ccc4c(c3)OCO4)SCCCS2)cc(OC)c1OC (centres undefined) have growth under 90%?
Not met

Criterion: growth strictly below 90%. Is it met by `O=CN1CCCCC1` ?
Not met

Lab note: growth threshold 90%. Does this compound come in strictly under it? NN1CCOC(c2ccccc2)C1 (centres undefined)
Met

I wonder whether `COc1ccc(Nc2ccc3ccccc3c2)cc1` has growth below 90%. Can you tell?
Met

Please let me know if `COc1ccc2cc1Oc1ccc(cc1)C[C@H]1c3cc(c(OC)cc3CCN1C)Oc1c(OC)c(OC)cc3c1[C@H](C2)N(C)CC3` shows growth below 90%.
Met
